- tested_on: PIM1 (human) (UniProt P11309)
- Sequence (P11309 whole entry, looked up): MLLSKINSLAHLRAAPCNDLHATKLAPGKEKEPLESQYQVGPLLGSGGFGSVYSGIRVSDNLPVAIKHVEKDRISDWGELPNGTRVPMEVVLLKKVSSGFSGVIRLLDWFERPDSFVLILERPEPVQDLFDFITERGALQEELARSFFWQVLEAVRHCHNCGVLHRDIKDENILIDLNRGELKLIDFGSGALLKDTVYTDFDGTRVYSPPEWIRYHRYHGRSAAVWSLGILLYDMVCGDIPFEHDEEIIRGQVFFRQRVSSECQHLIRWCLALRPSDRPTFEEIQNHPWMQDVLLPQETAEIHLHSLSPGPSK
- method_notes: radiometric filter-binding kinase assay
- conditions: compound 10.0 µM
Entries whose residual activity is below 70% take t; entries at or above 70% take f.

Sample answers from the record:
compound	label_value
Cn1nc(Nc2ccc(F)cc2)c2c(N)ncnc21	f
C[C@H]1CCCC(=O)CCC/C=C/c2cc(O)cc(O)c2C(=O)O1	t
Cc1nc(-c2ccc(OCC(C)C)c(C#N)c2)sc1C(=O)O	t
CC1=C(CO)C(=O)O[C@@H]([C@@H](C)[C@H]2CC[C@H]3[C@@H]4C[C@H]5O[C@]56[C@@H](O)C=CC(=O)[C@]6(C)C4CC[C@]23C)C1 (stereo partly specified)	f
CCNc1nc(Nc2cc(F)c(C(=O)N3CCOCC3)cc2OC)ncc1C(F)(F)F	f

Problem: Input Cc1ccc(=O)n(-c2ccccc2)c1 ; condition: residual activity strictly below 70%. Does it hold?
Solution: f

Problem: Then what about the compound NC(=O)c1c(NC(=O)C2CC2)sc2c1CCCC2 ?
Solution: f

Problem: Then what about the compound Cc1cccc(Nc2nn(C)c3ncnc(N)c23)c1 ?
Solution: f

Problem: Then what about the compound COc1cc(C(=O)N2CCOCC2)c(F)cc1Nc1ncc(C(F)(F)F)c(NC2CC2)n1 ?
Solution: f

Problem: Then what about the compound CC(C)(C#N)c1ccc(N2C(=O)OCc3cnc4ccc(-c5cnc6ccccc6c5)cc4c32)cc1 ?
Solution: f

Problem: Then what about the compound Oc1ccc(/C=C/c2cc(O)cc(O)c2)cc1 ?
Solution: t

----------
- tested_on: GSK3B (human)
- method_notes: radiometric filter-binding kinase assay
- conditions: compound 1.0 µM
Label -1 if residual activity falls below 70%; label 1 in every other case.

compound	label_value
CCCC(CCC)C(=O)O	1

# evaluate next
Problem: Could you tell me if the measured residual activity of Cc1ccc(Sc2cnc(Nc3cccc(Br)n3)s2)cc1C(=O)N1CCN(C(=O)CN)CC1 reaches 70% or more?
Solution: -1

----------
Listing of entries alongside the reported residual activity.
- tested_on: MAPK10 (human)
- method_notes: radiometric filter-binding kinase assay
- conditions: compound 1.0 µM
Reply with just the number (in %).

Recorded residual activity, per entry:
compound	tested_on	quantity_name	readout_value
Cc1cc(NC(=O)c2cccc(NC(=O)/C=C/CN(C)C)c2)ccc1Nc1nccc(-c2cccnc2)n1	MAPK10 (human)	residual activity	13
O=C(O)c1cc(N=Nc2ccc(S(=O)(=O)Nc3ccccn3)cc2)ccc1O	MAPK10 (human)	residual activity	105
FC(F)(F)c1ccc(-c2ccc(Oc3cncc4sc(-c5nn[nH]n5)cc34)cc2)cc1	MAPK10 (human)	residual activity	85
COc1cc(O)c2c(c1)/C=C/C[C@H](O)[C@H](O)C(=O)/C=C\C[C@H](C)OC2=O	MAPK10 (human)	residual activity	90

Problem: What value of measured residual activity is listed for CC1=C(CO)C(=O)O[C@@H]([C@@H](C)[C@H]2CC[C@H]3[C@@H]4C[C@H]5O[C@]56[C@@H](O)C=CC(=O)[C@]6(C)C4CC[C@]23C)C1 (some centres undefined) ?
Solution: 125

Problem: Then what about the compound CNC(=O)C1[C@H]2O[C@@](C)([C@@H]1N)n1c3ccccc3c3c4c(c5c6ccccc6n2c5c31)C(=O)NC4 (some centres undefined) ?
Solution: 26

Every entry's value here was drawn from the kinase profiling compilation of Christmann-Franck et al. (2016).
